Assay: self-splicing fitness, log relative to wild type (ln ratio); higher = more splicing; Tetrahymena group I intron in knt gene, E. coli kanamycin selection, DiMSum; sequences stand for … in CUCUCU…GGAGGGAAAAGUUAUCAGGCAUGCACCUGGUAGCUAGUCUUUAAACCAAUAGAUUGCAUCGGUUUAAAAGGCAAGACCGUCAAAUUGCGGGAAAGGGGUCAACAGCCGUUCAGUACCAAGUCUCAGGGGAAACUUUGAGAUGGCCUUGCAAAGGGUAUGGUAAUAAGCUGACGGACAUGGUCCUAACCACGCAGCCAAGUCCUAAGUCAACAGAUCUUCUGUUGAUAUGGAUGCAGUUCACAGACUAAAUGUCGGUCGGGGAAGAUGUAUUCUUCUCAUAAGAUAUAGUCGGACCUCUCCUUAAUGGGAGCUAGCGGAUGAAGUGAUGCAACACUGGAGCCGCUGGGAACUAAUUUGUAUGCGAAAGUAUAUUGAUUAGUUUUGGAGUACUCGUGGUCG;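 further: selection with 25 µg/mL kanamycin versus none on LB agar overnight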
Details: 37 °C
Label rule, in plain words: self-splicing fitness (ln) of -2 and up is 1, under -2 is -1.

**Query** I'd appreciate it if you could say whether `CUCAAGCAAUAUUACGCUAU` has self-splicing fitness (ln) at least equal to -2.
**Result** -1

**Query** Same lookup for `GAGCAGCAAUAUUACGUUUU` , please.
**Result** -1

**Query** Same lookup for `GCUGAGCAAUAUUACGCGUA` , please.
**Result** -1

**Query** Same lookup for `CACAAGCAAUAUUACGGCGU` , please.
**Result** 1

**Query** Same lookup for `AAGGAGCAAUAUUACGCGUA` , please.
**Result** 1

**Query** Same lookup for `AAGUAGCAAUAUUACGGCGA` , please.
**Result** 1

**Query** Same lookup for `AUCAAGCAAUAUUACGGCCA` , please.
**Result** 1

**Query** Same lookup for `UGUAAGCAAUAUUACGACGU` , please.
**Result** 1
